- Tested on: Providencia rettgeri NCTC 7475
- assay summary: multi-point inoculation onto Columbia agar plates; note: key: ++ means strong colour; + means less colour than ++; − means no colour
- Format: cell-based
- condition description: substrate 300 mg/L, FAC 500 mg/L, 18 h at 37° C. in air
Counter-ions that a name gives are not always drawn.
readout label: colour

- compound: "O=C([O-])C1OC(Oc2cc3ccccc3cc2O)C(O)C(O)C1O.[Na+] [Compound 2a, DHN-β-D-Glucuronide Sodium Salt]"
  meas value: "−"
- compound: "O=C(O)C1OC(Oc2cc3ccccc3cc2O)C(O)C(O)C1O [Compound 2b, DHN-β-D-Glucuronide CHA Salt]"
  meas value: "−"
- compound: "O=C(O)C1OC(Oc2ccccc2O)C(O)C(O)C1O [Compound 1, Catechol β-D-Glucuronide CHA Salt]"
  meas value: "−"
- compound: "COC(=O)C1OC(Oc2cc3ccccc3cc2O)C(O)C(O)C1O [Compound 6, DHN-β-D-Glucuronide-6′-Methyl Ester]"
  meas value: "−"
- compound: "COC(=O)C1OC(Oc2ccccc2O)C(O)C(O)C1O [Compound 4, Catechol β-D-Glucuronide-6′-Methyl Ester]"
  meas value: "−"

---

- Tested on: Listeria monocytogenes NCTC 11994
- assay summary: multi-point inoculation onto Columbia agar plates; note: key: ++ means strong colour; + means less colour than ++; − means no colour
- Type: cell-based
- condition description: substrate 300 mg/L, FAC 500 mg/L, 18 h at 37° C. in air
Where a name gives a salt, the structure may show the parent alone.
readout label: colour

- compound: "O=C([O-])C1OC(Oc2cc3ccccc3cc2O)C(O)C(O)C1O.[Na+] [Compound 2a, DHN-β-D-Glucuronide Sodium Salt]"
  meas value: "−"
- compound: "O=C(O)C1OC(Oc2cc3ccccc3cc2O)C(O)C(O)C1O [Compound 2b, DHN-β-D-Glucuronide CHA Salt]"
  meas value: "−"
- compound: "COC(=O)C1OC(Oc2ccccc2O)C(O)C(O)C1O [Compound 4, Catechol β-D-Glucuronide-6′-Methyl Ester]"
  meas value: "−"
- compound: "O=C(O)C1OC(Oc2ccccc2O)C(O)C(O)C1O [Compound 1, Catechol β-D-Glucuronide CHA Salt]"
  meas value: "−"
- compound: "COC(=O)C1OC(Oc2cc3ccccc3cc2O)C(O)C(O)C1O [Compound 6, DHN-β-D-Glucuronide-6′-Methyl Ester]"
  meas value: "−"
